B1: Caulobacter ParB omega fusion; a variant is named by its letters at X, in order, B8GW30 (parent)
chain: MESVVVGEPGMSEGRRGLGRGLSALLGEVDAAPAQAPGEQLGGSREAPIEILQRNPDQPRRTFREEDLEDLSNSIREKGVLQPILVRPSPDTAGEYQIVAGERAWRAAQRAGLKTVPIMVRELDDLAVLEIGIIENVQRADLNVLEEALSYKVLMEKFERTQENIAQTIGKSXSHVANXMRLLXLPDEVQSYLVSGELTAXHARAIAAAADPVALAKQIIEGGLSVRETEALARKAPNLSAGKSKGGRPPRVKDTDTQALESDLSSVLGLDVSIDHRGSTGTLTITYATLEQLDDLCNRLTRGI

Variants of: B1
assay_procedure: one-hybrid fitness for binding NBS DNA (the Noc-binding site; scaled: cognate 1, non-cognate 0); higher = stronger binding
conditions: with NBS DNA site
The full ranking holds about 81,000 sequences; the median of “one-hybrid fitness for binding NBS DNA” is about -0.1, and the highest 2% start at about 0.36. The list comes from a sample in which the highest values are over-represented; it also holds close analogues and randomly drawn sequences.
We begin with a simple list: items and their reported one-hybrid fitness for binding NBS DNA.
observation_type: one-hybrid fitness for binding NBS DNA

[[record]]
variant_identifier = "QIQN"
result = "≤ 0.2"

[[record]]
variant_identifier = "RCMW"
result = "≤ 0.2"

[[record]]
variant_identifier = "QSQN"
result = "≤ 0.2"

[[record]]
variant_identifier = "QSQH"
result = 0.246

[[record]]
variant_identifier = "RQVR"
result = 0.258

[[record]]
variant_identifier = "RQGR"
result = 0.447

[[record]]
variant_identifier = "QYQM"
result = "≤ 0.2"

[[record]]
variant_identifier = "VVGI"
result = "≤ 0.2"

[[record]]
variant_identifier = "QAQP"
result = "≤ 0.2"

[[record]]
variant_identifier = "YGRN"
result = "≤ 0.2"

[[record]]
variant_identifier = "QIQR"
result = 0.39

[[record]]
variant_identifier = "RQKG"
result = "≤ 0.2"

